biological target: S. aureus Topoisomerase IV (Staphylococcus aureus, UniProt P0C1S7+P0C1U9); assay: biochemical; conditions: read-out: % inhibition Topo IV
Task for the reader: assign each of the following compounds its reported inhibition at 50 µM.
Numeric only. Scale: %

Quick check: inhibition at 50 µM on S. aureus Topoisomerase IV (Staphylococcus aureus, UniProt P0C1S7+P0C1U9), item COc1ccc2ncc(=O)n(C3CCN(CCc4cc5c(=O)oc6ccc(F)cc6c5[nH]4)CC3)c2n1 ? 79

Please give the result for O=c1nc(NCC(O)CN2CCN(c3nccc4ccncc34)CC2)c2cc(F)ccc2o1 (stereo not drawn) too. 100

Please give the result for O=c1nc(NCC(O)CN2CCN(c3nccc4cc[n+]([O-])cc34)CC2)c2cc(F)ccc2o1 (stereo not drawn) too. 100

* * *

target: S. aureus Topoisomerase IV (Staphylococcus aureus, UniProt P0C1S7+P0C1U9); test: biochemical; details: S. aureus; compound conc. 50 μM; percent of inhibition versus positive control; n/a = not active; read-out: % inhibition Topo IV
MEASUREMENT_LABEL: inhibition at 50 µM (%)
Numeric only. Scale: %

Find the recorded inhibition at 50 µM belonging to O=c1oc2ccc(F)cc2c2[nH]c(CN[C@H]3CC[C@@H](n4c(=O)cnc5ncc(F)cc54)CC3)cc12 and report it. 84

Please give the result for O=c1oc2ccc(F)cc2c2[nH]c(CN[C@H]3CC[C@H](n4c(=O)ccc5ccc(F)cc54)CC3)cc12 too. 100

Please give the result for O=C1COc2ncc(F)cc2N1[C@H]1CC[C@](CO)(NCc2cc3c(=O)oc4ccc(F)cc4c3[nH]2)CC1 too. 100

Please give the result for COc1cnc2ccc(=O)n([C@H]3CC[C@@H](NCc4cc5c(=O)oc6ccc(F)cc6c5[nH]4)CC3)c2c1 too. 100

Please give the result for COc1cnc2ccc(=O)n([C@H]3CC[C@H](NCc4cc5c(=O)oc6ccc(F)cc6c5[nH]4)CC3)c2c1 too. 100

Please give the result for O=C1COc2ncc(F)cc2N1[C@H]1CC[C@H](N(CCO)Cc2cc3c(=O)oc4ccc(F)cc4c3[nH]2)CC1 too. 100

Please give the result for COc1ccc2ncc(=O)n([C@H]3CC[C@H](NCc4cc5c(=O)oc6ccc(F)cc6c5[nH]4)CC3)c2c1 too. 100

Please give the result for N#Cc1cnc2c(c1)N([C@H]1CC[C@H](NCc3cc4c(=O)oc5ccc(F)cc5c4[nH]3)CC1)C(=O)CO2 too. 100

Please give the result for O=c1oc2ccccc2c2[nH]c(CNCC3CCN(c4nccc5ccc(F)cc45)C3)cc12 (single isomer, unassigned) too. 50

Please give the result for O=c1oc2ccc(F)cc2c2[nH]c(CN[C@H]3CC[C@H](n4c(=O)cnc5ncc(F)cc54)CC3)cc12 too. 100

Please give the result for N#Cc1ccc2ccc(=O)n([C@H]3CC[C@H](NCc4cc5c(=O)oc6ccc(F)cc6c5[nH]4)CC3)c2c1 too. 100

Please give the result for COc1ccc2ccc(=O)n([C@H]3CC[C@H](NCc4cc5c(=O)oc6ccc(F)cc6c5[nH]4)CC3)c2c1 too. 100

Please give the result for O=c1oc2ccc(F)cc2c2[nH]c(CN[C@H]3CC[C@H](n4c(=O)cnc5ccc(F)cc54)CC3)cc12 too. 100

Please give the result for O=c1oc2ccc(F)cc2c2[nH]c(CN[C@H]3CC[C@H](n4c(=O)ccc5ncc(F)cc54)CC3)cc12 too. 100

* * *

target: S. aureus Topoisomerase IV (Staphylococcus aureus, UniProt P0C1S7+P0C1U9); experiment: biochemical; conditions: IC50 Topo IV
MEASUREMENT_LABEL: IC50 (nM)
Numeric only. Scale: nM

Find the recorded IC50 belonging to O=C1COc2ncc(F)cc2N1[C@H]1CC[C@H](NCc2cc3c(=O)oc4ccc(F)cc4c3[nH]2)CC1 [Compound 193] and report it. 2250

Please give the result for O=c1oc2ccccc2c2[nH]c(CNCC3CCN(c4nccc5ccc(F)cc45)C3)cc12 (single isomer, unassigned) [Compound 181] too. 360

Please give the result for COc1ccc2ncc(=O)n([C@H]3CC[C@H](NCc4cc5c(=O)oc6ccc(F)cc6c5[nH]4)CC3)c2c1 [Compound 208] too. 130

Please give the result for O=c1oc2ccccc2c2[nH]c(CNCC3CCN(c4nccc5ccc(F)cc45)C3)cc12 (single isomer, unassigned) [Compound 180] too. 110

Please give the result for O=c1oc2ccccc2c2[nH]c(CNCC3CN(c4nccc5ccc(F)cc45)CCO3)cc12 (single isomer, unassigned) [Compound 183] too. 190

Please give the result for O=C1COc2ncc(F)cc2N1[C@H]1CC[C@](CO)(NCc2cc3c(=O)oc4ccc(F)cc4c3[nH]2)CC1 [Compound 220] too. 2910

Please give the result for COc1ccc2ccc(=O)n([C@H]3CC[C@H](NCc4cc5c(=O)oc6ccc(F)cc6c5[nH]4)CC3)c2c1 [Compound 219] too. 650

Please give the result for O=c1nc(NCC(O)CN2CCN(c3nccc4cc[n+]([O-])cc34)CC2)c2cc(F)ccc2o1 (centres unmarked) [Compound 164] too. 700

Please give the result for O=C1COc2ncc(F)cc2N1[C@H]1CC[C@H](NCCNc2cc(=O)oc3ccc(F)cc23)CC1 [Compound 354] too. 920

Please give the result for N#Cc1cnc2c(c1)N([C@H]1CC[C@H](NCc3cc4c(=O)oc5ccc(F)cc5c4[nH]3)CC1)C(=O)CO2 [Compound 214] too. 570

Please give the result for COc1cnc2ncc(=O)n([C@H]3CC[C@H](NCc4cc5c(=O)oc6ccc(F)cc6c5[nH]4)CC3)c2c1 [Compound 212] too. 70

Please give the result for O=c1oc2ccccc2c2[nH]c(CNCC3CN(c4nccc5ccc(F)cc45)CCO3)cc12 (single isomer, unassigned) [Compound 182] too. 740

Please give the result for O=c1oc2ccc(F)cc2c2[nH]c(CN[C@H]3CC[C@H](n4c(=O)ccc5ccc(F)cc54)CC3)cc12 [Compound 216] too. 290

Please give the result for O=c1oc2ccc(F)cc2c2[nH]c(CN[C@H]3CC[C@@H](n4c(=O)cnc5ncc(F)cc54)CC3)cc12 [Compound 210] too. 1310

Please give the result for O=c1cc(NCC(O)C2CCN(C[C@@H]3Cn4c(=O)ccc5ncc(=O)n3c54)CC2)c2cc(F)ccc2o1 (mixture of isomers) [Compound 343] too. 8730

Please give the result for COc1cnc2ncc(=O)n([C@H]3CC[C@@H](NCc4cc5c(=O)oc6ccc(F)cc6c5[nH]4)CC3)c2c1 [Compound 213] too. 580

Please give the result for O=C1COc2ncc(F)cc2N1[C@H]1CC[C@H](N(CCO)Cc2cc3c(=O)oc4ccc(F)cc4c3[nH]2)CC1 [Compound 221] too. 2630

Please give the result for NC(=O)[C@]1(NCc2cc3c(=O)oc4ccc(F)cc4c3[nH]2)CC[C@H](N2C(=O)COc3ncc(F)cc32)CC1 [Compound 217] too. 2720

Please give the result for COc1cnc2ccc(=O)n([C@H]3CC[C@@H](NCc4cc5c(=O)oc6ccc(F)cc6c5[nH]4)CC3)c2c1 [Compound 205] too. 100

Please give the result for O=c1oc2ccc(F)cc2c2[nH]c(CN[C@H]3CC[C@H](n4c(=O)cnc5ncc(F)cc54)CC3)cc12 [Compound 209] too. 220

Please give the result for O=C1COc2ncc(F)cc2N1[C@H]1CC[C@H](NCc2cc3c(=O)oc4cccnc4c3[nH]2)CC1 [Compound 301] too. 70300

* * *

target: S. aureus Topoisomerase IV (Staphylococcus aureus, UniProt P0C1S7+P0C1U9); assay: biochemical; conditions: read-out: % inhibition Topo IV
MEASUREMENT_LABEL: inhibition at 50 µM (%)
Numeric only. Scale: %

Quick check: inhibition at 50 µM on S. aureus Topoisomerase IV (Staphylococcus aureus, UniProt P0C1S7+P0C1U9), item COc1cnc2ccc(=O)n(C3CCN(CCc4cc5c(=O)oc6ccc(F)cc6c5[nH]4)CC3)c2n1 ? 100

Please give the result for O=C1COc2ncc(F)cc2N1[C@H]1CC[C@H](NCc2cc3c(=O)oc4ccc(F)cc4c3[nH]2)CC1 too. 74

Please give the result for COc1ccc2ncc(=O)n([C@H]3CC[C@H](NCc4cc5c(=O)oc6ccc(F)cc6c5[nH]4)CC3)c2n1 too. 100

Please give the result for COc1ccc2ccc(=O)n(C3CCN(CCc4cc5c(=O)oc6ccc(F)cc6c5[nH]4)CC3)c2n1 too. 100

* * *

target: S. aureus DNA gyrase (Staphylococcus aureus, UniProt P0A0K8+P20831); test: biochemical; details: IC50 DNA gyrase
MEASUREMENT_LABEL: IC50 (nM)
Numeric only. Scale: nM

Find the recorded IC50 belonging to COc1ccc2ncc(=O)n([C@H]3CC[C@H](NCc4cc5c(=O)oc6ccc(F)cc6c5[nH]4)CC3)c2c1 [Compound 208] and report it. 110

Please give the result for COc1ccc2ccc(=O)n([C@H]3CC[C@H](NCc4cc5c(=O)oc6ccc(F)cc6c5[nH]4)CC3)c2c1 [Compound 219] too. 220

Please give the result for O=c1oc2ccc(F)cc2c2[nH]c(CN[C@H]3CC[C@@H](n4c(=O)cnc5ncc(F)cc54)CC3)cc12 [Compound 210] too. 1300
